Below, each of the molecules is paired with its reported SST5/2 Selectivity value.
target: UniProtKB P35346
assay: Hit Hunter cAMP XS+ assay, SST5 activation via Gi (reduction of forskolin-stimulated cAMP)
Type: cell-based
stated conditions: selectivity for SST5 over SST2
*1 amine or outer side, *2 acyl side, *3 side chain or, on linkers, in order; H or OH if unused. Where a SMILES comes first, the peptide text is derived from it. Side-chain parts run from the residue outwards. [ ]: non-standard residue; d: D form. The star is where a group is joined. Ala(piperidin-4-yl) = O=C([C@H](CC1CCN([*:3])CC1)N[*:1])[*:2]; X2 = O=C([C@@H]1C[C@@H](Oc2ccncc2)CN1[*:1])[*:2]; Phe(3-Cl) = N[C@@H](Cc1cccc(Cl)c1)C(=O)O; Ethylenediamine = C(CN[*:2])N[*:1]; d(hPhe) = N[C@H](CCc1ccccc1)C(=O)O; Hyp = O=C(O)[C@@H]1C[C@@H](O)CN1; hPhe = N[C@@H](CCc1ccccc1)C(=O)O; 3Pal = N[C@@H](Cc1cccnc1)C(=O)O; Cyclohexylmethyl = C1CCC(C*)CC1; CO = O=C([*:1])[*:2]; Bn = c1ccc(C*)cc1
Returns: the value as a bare number; no unit string appended.

molecule: NCCNC(=O)O[C@@H]1C[C@H]2C(=O)N[C@@H](CCc3ccccc3)C(=O)N[C@H](Cc3c[nH]c4ccccc34)C(=O)N[C@@H](CC3CCNCC3)C(=O)N[C@@H](Cc3ccc(OCC4CCCCC4)cc3)C(=O)N[C@@H](Cc3cccnc3)C(=O)N2C1 [Example 54] (cyclo([3Pal][Hyp]([CO-Ethylenediamine])[hPhe][dW][Ala(piperidin-4-yl)]Y(Cyclohexylmethyl)))
SST5/2 Selectivity: 1083.5
//
molecule: O=C1N[C@@H](Cc2cccnc2)C(=O)N2C[C@H](Oc3ccncc3)C[C@H]2C(=O)N[C@H](CCc2ccccc2)C(=O)N[C@H](Cc2c[nH]c3ccccc23)C(=O)N[C@@H](CC2CCNCC2)C(=O)N[C@H]1Cc1ccc(OCc2ccccc2)cc1 [Example 20] (cyclo([3Pal][X2][d(hPhe)][dW][Ala(piperidin-4-yl)]Y(Bn)))
SST5/2 Selectivity: 418.4

response.value for NCCNC(=O)O[C@@H]1C[C@H]2C(=O)N[C@@H](CCc3ccccc3)C(=O)N[C@H](Cc3c[nH]c4ccccc34)C(=O)N[C@@H](CC3CCNCC3)C(=O)N[C@@H](Cc3ccc(OCc4ccccc4)cc3)C(=O)N[C@@H](Cc3cccc(Cl)c3)C(=O)N2C1 [Example 41] (cyclo([Hyp]([CO-Ethylenediamine])[hPhe][dW][Ala(piperidin-4-yl)]Y(Bn)[Phe(3-Cl)])) (field: SST5/2 Selectivity) = 51.0

* * *

target: SST2 (Homo sapiens)
Sequence (P30874 whole entry): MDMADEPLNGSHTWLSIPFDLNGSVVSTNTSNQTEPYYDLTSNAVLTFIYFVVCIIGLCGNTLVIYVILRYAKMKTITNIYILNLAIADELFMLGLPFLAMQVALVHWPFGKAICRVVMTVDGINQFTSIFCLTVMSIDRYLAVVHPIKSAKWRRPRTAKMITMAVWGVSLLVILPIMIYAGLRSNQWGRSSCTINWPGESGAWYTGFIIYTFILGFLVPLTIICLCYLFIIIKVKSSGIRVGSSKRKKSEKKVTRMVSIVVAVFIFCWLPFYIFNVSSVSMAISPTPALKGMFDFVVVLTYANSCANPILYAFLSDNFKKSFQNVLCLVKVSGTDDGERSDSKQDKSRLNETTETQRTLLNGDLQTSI
assay: Hit Hunter cAMP XS+ assay, SST2 activation via Gi (reduction of forskolin-stimulated cAMP)
Assay type: cell-based
stated conditions: read-out: SST2 (EMax)
*1 amine or outer side, *2 acyl side, *3 side chain or, on linkers, in order; H or OH if unused. Where a SMILES comes first, the peptide text is derived from it. Side-chain parts run from the residue outwards. [ ]: non-standard residue; d: D form. The star is where a group is joined. Ala(piperidin-4-yl) = O=C([C@H](CC1CCN([*:3])CC1)N[*:1])[*:2]; Ala(piperazin-1-yl) = N[C@@H](CN1CCNCC1)C(=O)O; Phe(4-Cl) = N[C@@H](Cc1ccc(Cl)cc1)C(=O)O; Ethylenediamine = C(CN[*:2])N[*:1]; d(hPhe) = N[C@H](CCc1ccccc1)C(=O)O; Hyp = O=C(O)[C@@H]1C[C@@H](O)CN1; hPhe = N[C@@H](CCc1ccccc1)C(=O)O; 3Pal = N[C@@H](Cc1cccnc1)C(=O)O; Tic = O=C(O)[C@@H]1Cc2ccccc2CN1; CO = O=C([*:1])[*:2]; Bn = c1ccc(C*)cc1
Below, each of the molecules is paired with its reported Emax value.
Numbers only; they are read as %.

Log: SST2 (Homo sapiens), molecule NCCNC(=O)O[C@@H]1C[C@H]2C(=O)N[C@H](CCc3ccccc3)C(=O)N[C@H](Cc3c[nH]c4ccccc34)C(=O)N[C@@H](CN3CCNCC3)C(=O)N[C@@H](Cc3ccc(OCc4ccccc4)cc3)C(=O)N[C@@H](Cc3ccc(Cl)cc3)C(=O)N2C1 [Example 30] (cyclo([Hyp]([CO-Ethylenediamine])[d(hPhe)][dW][Ala(piperazin-1-yl)]Y(Bn)[Phe(4-Cl)])) , Emax = 100

Log: SST2 (Homo sapiens), molecule NCCNC(=O)O[C@@H]1C[C@H]2C(=O)N[C@@H](CCc3ccccc3)C(=O)N[C@@H](Cc3c[nH]c4ccccc34)C(=O)N[C@@H](CC3CCNCC3)C(=O)N[C@@H](Cc3ccc(OCc4ccccc4)cc3)C(=O)N3Cc4ccccc4C[C@H]3C(=O)N2C1 [Example 19] (cyclo([Hyp]([CO-Ethylenediamine])[hPhe]W[Ala(piperidin-4-yl)]Y(Bn)[Tic])) , Emax = 75.5

Log: SST2 (Homo sapiens), molecule NCCNC(=O)O[C@@H]1C[C@H]2C(=O)N[C@@H](CCc3ccccc3)C(=O)N[C@H](Cc3c[nH]c4ccccc34)C(=O)N[C@@H](CC3CCNCC3)C(=O)N[C@@H](Cc3ccc(OCc4ccccc4)cc3)C(=O)N[C@@H](Cc3cccnc3)C(=O)N2C1 [Example 3] (cyclo([3Pal][Hyp]([CO-Ethylenediamine])[hPhe][dW][Ala(piperidin-4-yl)]Y(Bn))) , Emax = 98.4

* * *

Below, each of the compounds is paired with its reported SST5/2 Selectivity value.
target: SST5 (Homo sapiens)
assay: Hit Hunter cAMP XS+ assay, SST5 activation via Gi (reduction of forskolin-stimulated cAMP)
Format: cell-based
stated conditions: selectivity for SST5 over SST2
*1 amine or outer side, *2 acyl side, *3 side chain or, on linkers, in order; H or OH if unused. Where a SMILES comes first, the peptide text is derived from it. Side-chain parts run from the residue outwards. [ ]: non-standard residue; d: D form. The star is where a group is joined. Ala(piperazin-1-yl) = N[C@@H](CN1CCNCC1)C(=O)O; Ethylenediamine = C(CN[*:2])N[*:1]; d(hPhe) = N[C@H](CCc1ccccc1)C(=O)O; Hyp = O=C(O)[C@@H]1C[C@@H](O)CN1; hPhe = N[C@@H](CCc1ccccc1)C(=O)O; Tic = O=C(O)[C@@H]1Cc2ccccc2CN1; CO = O=C([*:1])[*:2]; Bn = c1ccc(C*)cc1
Returns: the value as a bare number; no unit string appended.

compound: NCCNC(=O)O[C@@H]1C[C@H]2C(=O)N[C@@H](CCc3ccccc3)C(=O)N[C@@H](Cc3c[nH]c4ccccc34)C(=O)N[C@@H](CN3CCNCC3)C(=O)N[C@@H](Cc3ccc(OCc4ccccc4)cc3)C(=O)N3Cc4ccccc4C[C@H]3C(=O)N2C1 [Example 36] (cyclo([Hyp]([CO-Ethylenediamine])[hPhe]W[Ala(piperazin-1-yl)]Y(Bn)[Tic]))
SST5/2 Selectivity: 384.3

response.value for NCCNC(=O)O[C@@H]1C[C@H]2C(=O)N[C@H](CCc3ccccc3)C(=O)N[C@H](Cc3c[nH]c4ccccc34)C(=O)N[C@@H](CN3CCNCC3)C(=O)N[C@@H](Cc3ccc(OCc4ccccc4)cc3)C(=O)N3Cc4ccccc4C[C@H]3C(=O)N2C1 [Example 25] (cyclo([Hyp]([CO-Ethylenediamine])[d(hPhe)][dW][Ala(piperazin-1-yl)]Y(Bn)[Tic])) (field: SST5/2 Selectivity) = 1351.8

* * *

target: SST5 (Homo sapiens, UniProt P35346)
Sequence (P35346 whole entry): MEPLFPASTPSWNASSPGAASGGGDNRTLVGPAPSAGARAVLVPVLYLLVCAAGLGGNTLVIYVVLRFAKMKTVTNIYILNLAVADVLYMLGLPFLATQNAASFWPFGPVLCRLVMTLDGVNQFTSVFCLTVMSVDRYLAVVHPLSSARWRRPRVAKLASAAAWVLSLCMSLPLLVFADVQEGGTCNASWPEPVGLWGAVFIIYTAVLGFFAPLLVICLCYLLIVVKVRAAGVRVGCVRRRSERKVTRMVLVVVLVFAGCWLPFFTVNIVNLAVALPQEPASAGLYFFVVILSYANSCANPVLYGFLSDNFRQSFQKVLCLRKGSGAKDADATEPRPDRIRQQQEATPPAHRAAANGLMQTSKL
assay: Hit Hunter cAMP XS+ assay, SST5 activation via Gi (reduction of forskolin-stimulated cAMP)
Format: cell-based
stated conditions: reduction of forskolin-stimulated cAMP; 4-parameter logistic fit; read-out: SST5 pEC50 (converted)
*1 amine or outer side, *2 acyl side, *3 side chain or, on linkers, in order; H or OH if unused. Where a SMILES comes first, the peptide text is derived from it. Side-chain parts run from the residue outwards. [ ]: non-standard residue; d: D form. The star is where a group is joined. Ala(piperidin-4-yl) = O=C([C@H](CC1CCN([*:3])CC1)N[*:1])[*:2]; Ethylenediamine = C(CN[*:2])N[*:1]; d(hPhe) = N[C@H](CCc1ccccc1)C(=O)O; Hyp = O=C(O)[C@@H]1C[C@@H](O)CN1; Pip(4-aza) = O=C(O)[C@@H]1CNCCN1; hPhe = N[C@@H](CCc1ccccc1)C(=O)O; 3Pal = N[C@@H](Cc1cccnc1)C(=O)O; Tic = O=C(O)[C@@H]1Cc2ccccc2CN1; X6 = Clc1cccc(Cl)c1C*; CO = O=C([*:1])[*:2]; Bn = c1ccc(C*)cc1
Below, each of the molecules is paired with its reported EC50 value.
Numbers only; they are read as pM.

Known EC50 results, listed for orientation:
molecule: NCCNC(=O)O[C@@H]1C[C@H]2C(=O)N[C@@H](CCc3ccccc3)C(=O)N[C@H](Cc3c[nH]c4ccccc34)C(=O)N[C@@H](CC3CCNCC3)C(=O)N[C@@H](Cc3ccc(OCc4c(Cl)cccc4Cl)cc3)C(=O)N[C@@H](Cc3cccnc3)C(=O)N2C1 [Example 47] (cyclo([3Pal][Hyp]([CO-Ethylenediamine])[hPhe][dW][Ala(piperidin-4-yl)]Y(X6)))
measured result: 794
--
molecule: NCCNC(=O)O[C@@H]1C[C@H]2C(=O)N[C@H](CCc3ccccc3)C(=O)N[C@H](Cc3c[nH]c4ccccc34)C(=O)N[C@@H](CC3CCNCC3)C(=O)N[C@@H](Cc3ccc(OCc4ccccc4)cc3)C(=O)N[C@@H](Cc3cccnc3)C(=O)N2C1 [Example 15] (cyclo([3Pal][Hyp]([CO-Ethylenediamine])[d(hPhe)][dW][Ala(piperidin-4-yl)]Y(Bn)))
measured result: 20000

response.value for O=C1N[C@@H](Cc2ccc(OCc3ccccc3)cc2)C(=O)N2Cc3ccccc3C[C@H]2C(=O)N2CCNC[C@H]2C(=O)N[C@@H](CCc2ccccc2)C(=O)N[C@H](Cc2c[nH]c3ccccc23)C(=O)N[C@H]1CC1CCNCC1 [Example 73] (cyclo([Tic][Pip(4-aza)][hPhe][dW][Ala(piperidin-4-yl)]Y(Bn))) (field: EC50) = 631
